TEST TARGET: human IRAK4 kinase domain (aa 154-460) (Homo sapiens (Human))
Sequence (Q9NWZ3 154-460): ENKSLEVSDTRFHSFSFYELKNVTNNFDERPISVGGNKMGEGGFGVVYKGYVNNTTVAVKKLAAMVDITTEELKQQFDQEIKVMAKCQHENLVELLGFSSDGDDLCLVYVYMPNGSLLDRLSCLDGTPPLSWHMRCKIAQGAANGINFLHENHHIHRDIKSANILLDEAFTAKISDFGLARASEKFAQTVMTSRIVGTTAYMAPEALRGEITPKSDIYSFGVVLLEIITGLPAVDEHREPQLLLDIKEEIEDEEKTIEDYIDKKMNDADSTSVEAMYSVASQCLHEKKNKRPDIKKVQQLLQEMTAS
METHOD: IRAK4 Enzymatic DELFIA Assay, Protocol B
Assay type: biochemical
RUN CONDITIONS: human IRAK4 kinase domain (aa 154-460), 0.6 mM ATP (KM); read-out: IRAK4 DELFIA Protocol B IC50
OBSERVATION TYPE: IC50
Just the number plus its unit, please.

Asked: Find the recorded IC50 belonging to CC(C)Oc1cc2c(OC[C@@H]3CCN3)nccc2cc1C(N)=O [Example 119] and report it.
Given back: 1.43 µM

Asked: Find the recorded IC50 belonging to CC(C)Oc1cc2c(OCC3CCCCO3)nccc2cc1C(N)=O (stereo not drawn) [Example 25] and report it.
Given back: 1.13 µM

Asked: Find the recorded IC50 belonging to CC(C)Oc1cc2c(OC[C@H]3CCNC3)ccnc2cc1C(N)=O [Example 50] and report it.
Given back: 0.701 µM
